# system tested: Src kinase SH3 domain protein (Homo sapiens (Human))
# Sequence (P12931 whole entry, looked up, the tested form may be a part): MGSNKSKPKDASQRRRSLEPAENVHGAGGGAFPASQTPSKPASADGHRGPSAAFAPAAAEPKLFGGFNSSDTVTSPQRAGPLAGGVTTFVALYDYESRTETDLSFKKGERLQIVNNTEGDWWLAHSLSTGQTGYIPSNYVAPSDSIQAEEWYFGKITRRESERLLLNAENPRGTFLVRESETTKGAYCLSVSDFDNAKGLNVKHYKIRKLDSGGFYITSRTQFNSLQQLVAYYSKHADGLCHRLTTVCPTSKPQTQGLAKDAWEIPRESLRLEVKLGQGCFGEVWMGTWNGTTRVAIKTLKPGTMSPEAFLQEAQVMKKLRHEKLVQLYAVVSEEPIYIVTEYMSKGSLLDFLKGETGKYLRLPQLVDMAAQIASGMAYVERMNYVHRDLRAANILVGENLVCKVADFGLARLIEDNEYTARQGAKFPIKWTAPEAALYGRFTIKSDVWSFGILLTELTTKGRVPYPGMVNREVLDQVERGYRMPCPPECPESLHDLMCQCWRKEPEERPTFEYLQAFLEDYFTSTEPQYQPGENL
pKd: −log10 of the molar value.
quantity: pKd

// worked examples, pKd included
CCOC(=O)c1c(CNC(=N)N)n(C)c2cc(Br)c(OC3CCCC3)nc12 : 4.00 to 5.00
CCOC(=O)c1c(CNC(=N)N)n(C)c2cc(Br)cnc12 : > 6.00
CCOC(=O)c1c(CNC(=N)N)n(C)c2ccccc12 : 4.00 to 5.00
CCOC(=O)c1c(CNC(=N)N)n(C)c2cc(-c3cccc4ccccc34)c(Br)cc12 : > 6.00
CCOC(=O)c1c(CNC(=N)N)n(C)c2cc(-c3cc(F)cc4ccccc34)ccc12 : 4.00 to 5.00

pKd lookup needed for CCOC(=O)c1c(CNC(=N)N)sc2cc(-c3cccc4ccccc34)ccc12 , thanks.
4.00 to 5.00

Also CCOC(=O)c1c(CNC(=N)N)oc2cc(-c3cccc4ccccc34)ccc12 ?
5.00 to 6.00

Also CCOC(=O)c1c(CNC(=N)N)n(C)c2cc(OC)c(-c3cccc4ccccc34)cc12 ?
4.00 to 5.00

Also CCOC(=O)c1c(CNC(=N)N)n(C(C)C)c2cc(-c3cccc4ccccc34)ccc12 ?
> 6.00
